Reference source: the supplement of paper PMC8498969

cytotoxicity IC50 values for the compounds below.
# Test system: HEK293
# Measurement protocol: cytotoxicity IC50 (ATP content, uninfected cells); higher = less cytotoxic
# Recorded conditions: infection: none

{"Compound": "COC(=O)[C@]12CCC(C)(C)C[C@H]1[C@H]1C(=O)C=C3[C@@]4(C)C=C(C#N)C(=O)C(C)(C)[C@@H]4CC[C@@]3(C)[C@]1(C)CC2", "Value units": "µM", "Op": "=", "cytotoxicity IC50": 2.7}
{"Compound": "OC[C@H]1O[C@@H](n2cnc3c(S)ncnc32)[C@H](O)[C@@H]1O", "Value units": "µM", "Op": "=", "cytotoxicity IC50": 4.1}
{"Compound": "O=C(Nc1cc(C(F)(F)F)cc(C(F)(F)F)c1)c1cc(Cl)ccc1O", "Value units": "µM", "Op": "=", "cytotoxicity IC50": 0.71}
{"Compound": "COC[C@H](NC(=O)c1cnc(C)s1)C(=O)N[C@@H](COC)C(=O)N[C@@H](Cc1ccccc1)C(=O)[C@@]1(C)CO1", "Value units": "µM", "Op": "=", "cytotoxicity IC50": 0.72}
{"Compound": "O=C(Cc1ccc(-c2ccc(OCCN3CCOCC3)cc2)cn1)NCc1ccccc1", "Value units": "µM", "Op": "=", "cytotoxicity IC50": 19}
{"Compound": "Cc1c(N)nc([C@H](CC(N)=O)NC[C@@H](N)C(N)=O)nc1C(=O)N[C@H](C(=O)N[C@@H](C)[C@H](O)[C@@H](C)C(=O)N[C@@H](C(=O)NCCc1nc(-c2nc(C(=O)NCCC[S+](C)C)cs2)cs1)[C@@H](C)O)C(O[C@H]1O[C@H](CO)[C@H](O)[C@@H](O)[C@H]1O[C@H]1O[C@H](CO)[C@@H](O)[C@H](OC(N)=O)[C@@H]1O)c1cnc[nH]1 (some centres not stated)", "Value units": "µM", "Op": ">", "cytotoxicity IC50": 100}
{"Compound": "Cc1ccccc1C(=O)c1ccc(Nc2ccc(Br)cc2N)cc1Cl", "Value units": "µM", "Op": ">", "cytotoxicity IC50": 100}
{"Compound": "CC[C@@H]1[C@@H](C)O[C@@](O)([C@@H](C)[C@H](O)[C@H](C)[C@H]2OC(=O)/C=C/C=C/[C@H](C)[C@@H]([C@@H](C)[C@@H](O)[C@H](C)[C@@]3(O)C[C@@H](O[C@H]4C[C@H](O)[C@H](O)[C@H](C)O4)[C@H](CC)[C@@H](C)O3)OC(=O)/C=C/C=C/[C@@H]2C)C[C@H]1O[C@H]1C[C@H](O)[C@H](O)[C@H](C)O1", "Value units": "µM", "Op": "=", "cytotoxicity IC50": 1.5}
{"Compound": "FC(F)c1nc2ccccc2n1-c1nc(N2CCOCC2)nc(N2CCOCC2)n1", "Value units": "µM", "Op": "=", "cytotoxicity IC50": 60}
{"Compound": "C[C@@H]1O[C@@H](O[C@@H]2C=C3CC[C@@H]4[C@H](CC[C@]5(C)[C@@H](c6ccc(=O)oc6)CC[C@]45O)[C@@]3(C)CC2)[C@H](O)[C@H](O)[C@H]1O", "Value units": "µM", "Op": "=", "cytotoxicity IC50": 0.011}
{"Compound": "C=C1C(=O)[C@]23[C@H](O)[C@H]1CC[C@H]2[C@@]12CO[C@]3(O)[C@@H](O)[C@@H]1C(C)(C)CC[C@@H]2O", "Value units": "µM", "Op": "=", "cytotoxicity IC50": 40}
{"Compound": "C/C=C(/C)C(=O)O[C@H]1C(C)=C2[C@H]([C@@H]1OC(=O)CCCCCCC)[C@@](C)(OC(C)=O)C[C@H](OC(=O)CCC)[C@@]1(O)[C@H]2OC(=O)[C@@]1(C)O", "Value units": "µM", "Op": "=", "cytotoxicity IC50": 40}
